The reported numbers originate from the DeepSol protein solubility set.

experiment: soluble on expression in E. coli; label from the status in PepcDB or PDB records
result-type: soluble on expression in E. coli

{"item-sequence": "MQESAQFFNDTGVSMSMQGFHNEAIACLKKGLALEPDNSLMWLNLGLSYYAAKRQNDSKFALFQSLKYNPYEADAWDSLGLVLFETGDIDQAERAFESAIKLEPENGRVWNNYGTVLFNKENYRAARRAFESAVTLDPEMGDAVFNLRDTYLELGMNDLAERCNKILKEMDYQE", "observed-result": "not soluble"}
{"item-sequence": "MGSDKIHHHHHHMNQSRLICFVALLFVLSGCQGKPVTIPEEDGPMVVVSHIKESTFSFISKNKMELLETEESPYPLTAMVDIEGGQIVVTSQTEDTLFLFDTVQGKILPFITLNKGLTVMEFDRAKRMLFVADTLNDEIIQIDVDKREVQTRIAIDCSPTDLQVIDDLLFILSSETSTVFIYDMRSETMIQSFSVTERPAGMFYDGSHLWIGGHGPYGDLNKRIFAYNIKTGVIDQEVEVGLMPITIYQDQHDTYVYVLCHGDDALYKVDLDAKRVEASLSVGHNPYYLKGDGDHLYVSNLDDDTFSIIERTTFQVVNEINVPAGPYAIVLEEEE", "observed-result": "not soluble"}
{"item-sequence": "MEDIWPTIERTTISASVPEAPANFDEKPPFNRTINVYPLTNYTFGTKDAQAEKDKSVPERFKRMKDEYEVMGMRRSVEAVLIVHEHSLPHILLLQIGTTFYKLPGGELELGEDEISGVTRLLNETLGRTDGETNEWTIEDEIGNWWRPNFDPPRYPYIPAHVTKPKEHTKLLLVQLPSKSTFCVPKNFKLVAAPLFELYDNAAAYGPLISSLPTTLSRFNFIFNDSN", "observed-result": "not soluble"}
